- Test system: P. falciparum NF54-pfs16-GFP late (IV-V) stage gametocytes
- MEASUREMENT_CONDITIONS: stage: late (IV-V) gametocyte; incubation 72 h
OBSERVATION_TYPE: IC50, viable gametocyte number (nM)
Hi! Could you send only the number? It should be in nM, unit omitted.

Fill in the blank: the reported IC50, viable gametocyte number of CC(C)(C)c1ccc(O)c(CNC2CCCCC2)c1 is ____.
382

Fill in the blank: the reported IC50, viable gametocyte number of Oc1ccccc1CN1CCN(C(c2ccccc2)c2ccccc2)CC1 is ____.
1320

Fill in the blank: the reported IC50, viable gametocyte number of CCOc1ccccc1CN1CCc2nc3cc(C(C)(C)C)nn3c(O)c2C1 is ____.
1590

Fill in the blank: the reported IC50, viable gametocyte number of CC(C)(C)c1ccc2c(c1)CN(Cc1ccc(Cl)cc1)CO2 is ____.
920

Fill in the blank: the reported IC50, viable gametocyte number of COc1cccc(O)c1CN1CCC2(CCCN(Cc3ccc(F)cc3)C2)C1 (centres undefined) is ____.
899

Fill in the blank: the reported IC50, viable gametocyte number of CCOC(=O)c1cn(CC)c2cc(N(C)CCc3ccc(OC)c(OC)c3)c(F)cc2c1=O is ____.
574

Fill in the blank: the reported IC50, viable gametocyte number of CCc1ccc(Nc2cc(C)c3ccc(O)cc3n2)cc1 is ____.
1270

Fill in the blank: the reported IC50, viable gametocyte number of COc1ccc(-c2nc3cc(Cc4ccc5[nH]c(-c6ccc(OC)cc6)nc5c4)ccc3[nH]2)cc1 is ____.
1110

Fill in the blank: the reported IC50, viable gametocyte number of O=C1c2ccccc2C2=Nc3ccccc3SC(c3cccc(F)c3)C12 (centres undefined) is ____.
733

Fill in the blank: the reported IC50, viable gametocyte number of COc1ccc(C2c3ccc4ccccc4c3Oc3ncn(CCCN(C)C)c(=N)c32)cc1 (centres undefined) is ____.
1060

Fill in the blank: the reported IC50, viable gametocyte number of CN(C)c1ccc(C=Cc2nc(=O)c3ccccc3o2)cc1 is ____.
936

Fill in the blank: the reported IC50, viable gametocyte number of Cc1ccc(N2C3c4ccccc4N(S(=O)(=O)c4ccc(C)cc4)C2c2ccccc2N3S(=O)(=O)c2ccc(C)cc2)cc1 is ____.
208

Fill in the blank: the reported IC50, viable gametocyte number of COc1cccc(C=Cc2nc(=O)c3ccccc3o2)c1OC is ____.
438

Fill in the blank: the reported IC50, viable gametocyte number of COc1ccc(C2NCCc3c2[nH]c2ccccc32)cc1CN1CCN(c2ccc(F)cc2)CC1 (centres undefined) is ____.
1170

Fill in the blank: the reported IC50, viable gametocyte number of C=CC12CCN(CC1)C(C(O)c1ccnc3ccc(OC)cc13)C2 (centres undefined) is ____.
276

Fill in the blank: the reported IC50, viable gametocyte number of COc1ccc(-c2nc(N3CCN(C(=O)C4CCCCC4)CC3)c3c4c(sc3n2)CCCC4)cc1 is ____.
1290

Fill in the blank: the reported IC50, viable gametocyte number of CCCCCCc1cc2cc(-c3nc4ccccc4[nH]3)c(=Nc3ccccc3C)oc2cc1O is ____.
465

Fill in the blank: the reported IC50, viable gametocyte number of Clc1cc(Br)ccc1-c1ccc(CNCC2CCNCC2)o1 is ____.
692

Fill in the blank: the reported IC50, viable gametocyte number of Brc1ccc(Nc2nc3ccccc3nc2Nc2ccc(Br)cc2)cc1 is ____.
948

Fill in the blank: the reported IC50, viable gametocyte number of CC1CC2=C(CC1CNCCCN(C)C)C(C)(C)CCC2 (centres undefined) is ____.
541

Fill in the blank: the reported IC50, viable gametocyte number of OC(CNC1CCCCC1)Cn1c2ccc(I)cc2c2cc(I)ccc21 (centres undefined) is ____.
63

Fill in the blank: the reported IC50, viable gametocyte number of Cc1ccc(Nc2nc(-c3ccccn3)cs2)cc1 is ____.
231

Fill in the blank: the reported IC50, viable gametocyte number of c1ccc(Cn2c(N=Nc3c(Nc4ccccc4)ccc4ccccc34)nc3ccccc32)cc1 is ____.
184

Fill in the blank: the reported IC50, viable gametocyte number of CCCCCCc1cc2cc(-c3csc(C=Cc4ccccc4)n3)c(=O)oc2cc1O is ____.
594

Fill in the blank: the reported IC50, viable gametocyte number of CCCCCCn1c(=N)n(CC(O)COc2cccc(C)c2)c2ccccc21 (centres undefined) is ____.
1610

Fill in the blank: the reported IC50, viable gametocyte number of CCOC(=O)c1c(NC(=O)c2ccccc2)sc2c(O)c(CN(CC)CC)ccc12 is ____.
371

Fill in the blank: the reported IC50, viable gametocyte number of Cc1ccc(-c2cc3c(nn2)-c2ccccc2C3=O)cc1 is ____.
603

Fill in the blank: the reported IC50, viable gametocyte number of COc1ccc(C=C2SC(Nc3ccc(F)cc3)=NC2=O)c(OC)c1 is ____.
892

Fill in the blank: the reported IC50, viable gametocyte number of CCOC(=O)c1cn(CC)c2cc(N3CCCCC3)c(F)cc2c1=O is ____.
337

----------
- Tested on: P. falciparum NF54-pfs16-GFP late (IV-V) stage gametocytes
- MEASUREMENT_CONDITIONS: stage: late (IV-V) gametocyte; incubation 72 h
For each entry below, report its IC50, viable gametocyte number value.
Hi! Could you send only the number? It should be in nM, unit omitted.

Fill in the blank: the reported IC50, viable gametocyte number of CCCOCc1cc(CN2CCN(c3cccc(Cl)c3)CC2)c(O)c2ncccc12 is ____.
584

Fill in the blank: the reported IC50, viable gametocyte number of OC1=C2C(=Nc3ccccc3SC2c2ccc(Br)cc2)c2ccccc21 (configuration not stated) is ____.
875

Fill in the blank: the reported IC50, viable gametocyte number of OCCNc1nc(Nc2ccc(Cl)c(Cl)c2)nc2ccccc12 is ____.
1350

Fill in the blank: the reported IC50, viable gametocyte number of CCOC(=O)c1cnc2ccc(CC)cc2c1O is ____.
253

Fill in the blank: the reported IC50, viable gametocyte number of CCCc1cc(O)c2c3c(c(=O)oc2c1)CN(C)CC3 is ____.
591

Fill in the blank: the reported IC50, viable gametocyte number of CCCCCCc1cc(O)c2c3c(c(=O)oc2c1)CCC(C)C3 (configuration not stated) is ____.
759

Fill in the blank: the reported IC50, viable gametocyte number of COc1cc2c(cc1OC)C1=NNC(=O)C1=NC(C)(C)C2 is ____.
1040

Fill in the blank: the reported IC50, viable gametocyte number of COc1ccc(NC(=O)C2c3ccccc3C(=O)N(CC(C)C)C2c2cccs2)cc1Cl (configuration not stated) is ____.
596

Fill in the blank: the reported IC50, viable gametocyte number of COC(=O)c1ccc(C2C3=C(O)CC(c4ccc(F)cc4)CC3=Nc3ccccc3N2C(=O)c2ccccc2)cc1 (configuration not stated) is ____.
1130

Fill in the blank: the reported IC50, viable gametocyte number of CSC1=NC(=Nc2c(C)cccc2C)C2(CCC(C(C)(C)C)CC2)N1c1ccc(Cl)cc1 (configuration not stated) is ____.
592

Fill in the blank: the reported IC50, viable gametocyte number of CC1=C(CC(=O)c2cccc([N+](=O)[O-])c2)C(=O)c2ccccc2C1=O is ____.
745

Fill in the blank: the reported IC50, viable gametocyte number of CNCCCNc1ccnc2cc(Cl)ccc12 is ____.
310
